Where do these numbers come from? They come from paper PMC10045298.

System: rat primary hepatocytes
protocol_text: Depletion of inhibitors in rat primary hepatocyte suspension (LC-MS/MS), PK prediction
Assay type: in vitro ADME
test_context: rat, fu = 1
Predicted Cl CLH reference

As a guide, the following entries are already answered.
• COc1ccc(-c2cccc(S(=O)(=O)N[C@@H](Cc3cccc(C(=N)N)c3)C(=O)N3CCC(NC(=O)NC(C)(C)C)CC3)c2)c(OC)c1 = 17.33
• COc1ccc(-c2cccc(S(=O)(=O)N[C@@H](Cc3cccc(C(=N)N)c3)C(=O)N3CCN(C(=O)NC4CCCCC4)CC3)c2)c(OC)c1 = 16.43
• COc1ccc(-c2cccc(S(=O)(=O)N[C@@H](Cc3cccc(C(=N)N)c3)C(=O)N3CCC(NC(=O)NC4CCCCC4)CC3)c2)c(OC)c1 = 15.97

In the following, a different compound is considered.
# Predicted Cl CLH measured on rat primary hepatocytes for item COc1ccc(-c2cccc(S(=O)(=O)N[C@@H](Cc3cccc(C(=N)N)c3)C(=O)N3CCC(N)CC3)c2)c(OC)c1 = 16.85

====

Below, each of the compounds is paired with its reported CLint scaled at 10 µM value.
protocol_text: Depletion of inhibitors in cynomolgus monkey primary hepatocyte suspension (LC-MS/MS), PK prediction
Assay type: in vitro ADME
test_context: cynomolgus monkey, cryopreserved primary hepatocytes in suspension; macaque hepatocytes, 10 µM inhibitor, 5 × 10^5 cells/mL, 0-300 min, scaled to liver/bw
Answer in mL/min/kg, number only, no unit symbol.

As a guide, the following entries are already answered.
• COc1ccc(-c2cccc(S(=O)(=O)N[C@@H](Cc3cccc(C(=N)N)c3)C(=O)N3CCC(NC(=O)NC(C)(C)C)CC3)c2)c(OC)c1 = 11.4
• COc1ccc(-c2cccc(S(=O)(=O)N[C@@H](Cc3cccc(C(=N)N)c3)C(=O)N3CCN(C(=O)NC4CCCCC4)CC3)c2)c(OC)c1 = 16.1
• COc1ccc(-c2cccc(S(=O)(=O)N[C@@H](Cc3cccc(C(=N)N)c3)C(=O)N3CCC(NC(=O)NC4CCCCC4)CC3)c2)c(OC)c1 = 6.58

Could you now look at the following compound, please?
So, COc1ccc(-c2cccc(S(=O)(=O)N[C@@H](Cc3cccc(C(=N)N)c3)C(=O)N3CCC(N)CC3)c2)c(OC)c1 ? Its CLint scaled at 10 µM was 12

====

protocol_text: Depletion of inhibitors in dog primary hepatocyte suspension (LC-MS/MS), PK prediction
Format: in vitro ADME
test_context: dog, cryopreserved primary hepatocytes in suspension, dog hepatocytes, 10 µM inhibitor, 5 × 10^5 cells/mL, 0-300 min, scaled to liver/bw
In this section we review reported CLint scaled at 10 µM values for a set of molecules.
Your answer is read as mL/min/kg, so omit the unit and give the number.

Sure, the documented CLint scaled at 10 µM for COc1ccc(-c2cccc(S(=O)(=O)N[C@@H](Cc3cccc(C(=N)N)c3)C(=O)N3CCC(NC(=O)NC4CCCCC4)CC3)c2)c(OC)c1 [MI-463] is 19.5

Summary for this molecule, COc1ccc(-c2cccc(S(=O)(=O)N[C@@H](Cc3cccc(C(=N)N)c3)C(=O)N3CCC(N)CC3)c2)c(OC)c1 [MI-472] : CLint scaled at 10 µM is 26.7

CLint scaled at 10 µM measured on COc1ccc(-c2cccc(S(=O)(=O)N[C@@H](Cc3cccc(C(=N)N)c3)C(=O)N3CCN(C(=O)NC4CCCCC4)CC3)c2)c(OC)c1 [MI-1900] = 10.5

Kindly note the recorded CLint scaled at 10 µM for COc1ccc(-c2cccc(S(=O)(=O)N[C@@H](Cc3cccc(C(=N)N)c3)C(=O)N3CCC(NC(=O)NC(C)(C)C)CC3)c2)c(OC)c1 [MI-485] , which is 22.8

====

protocol_text: Depletion of inhibitors in rat primary hepatocyte suspension (LC-MS/MS), PK prediction
Assay type: in vitro ADME
test_context: cryopreserved primary hepatocytes in suspension; rat hepatocytes, 10 µM inhibitor, 5 × 10^5 cells/mL, 0-300 min, scaled to liver/bw
We begin with a simple list: items and their reported CLint scaled at 10 µM.
Report the figure in mL/min/kg without appending any unit label.

Observe how each entry below is paired with its result.
* COc1ccc(-c2cccc(S(=O)(=O)N[C@@H](Cc3cccc(C(=N)N)c3)C(=O)N3CCN(C(=O)NC4CCCCC4)CC3)c2)c(OC)c1 | 33.8
* COc1ccc(-c2cccc(S(=O)(=O)N[C@@H](Cc3cccc(C(=N)N)c3)C(=O)N3CCC(NC(=O)NC4CCCCC4)CC3)c2)c(OC)c1 | 31.9
* COc1ccc(-c2cccc(S(=O)(=O)N[C@@H](Cc3cccc(C(=N)N)c3)C(=O)N3CCC(NC(=O)NC(C)(C)C)CC3)c2)c(OC)c1 | 37.8

As a next step, examine the compound that follows.
So for COc1ccc(-c2cccc(S(=O)(=O)N[C@@H](Cc3cccc(C(=N)N)c3)C(=O)N3CCC(N)CC3)c2)c(OC)c1 , the logged CLint scaled at 10 µM turned out to be 35.6

====

Below is a list of entries, each paired with its recorded Extraction Ratio EH value.
Test system: cynomolgus monkey primary hepatocytes
protocol_text: Depletion of inhibitors in cynomolgus monkey primary hepatocyte suspension (LC-MS/MS), PK prediction
Format: in vitro ADME
test_context: macaque
In your answer, state the number alone without any accompanying words.

Observe how each entry below is paired with its result.
• COc1ccc(-c2cccc(S(=O)(=O)N[C@@H](Cc3cccc(C(=N)N)c3)C(=O)N3CCC(N)CC3)c2)c(OC)c1 [MI-472] = 0.190
• COc1ccc(-c2cccc(S(=O)(=O)N[C@@H](Cc3cccc(C(=N)N)c3)C(=O)N3CCC(NC(=O)NC4CCCCC4)CC3)c2)c(OC)c1 [MI-463] = 0.121
• COc1ccc(-c2cccc(S(=O)(=O)N[C@@H](Cc3cccc(C(=N)N)c3)C(=O)N3CCC(NC(=O)NC(C)(C)C)CC3)c2)c(OC)c1 [MI-485] = 0.183

Tested on cynomolgus monkey primary hepatocytes, the item COc1ccc(-c2cccc(S(=O)(=O)N[C@@H](Cc3cccc(C(=N)N)c3)C(=O)N3CCN(C(=O)NC4CCCCC4)CC3)c2)c(OC)c1 [MI-1900] showed Extraction Ratio EH equal to 0.230

====

In this section we review reported Predicted Cl CLH values for a set of compounds.
System: cynomolgus monkey primary hepatocytes
protocol_text: Depletion of inhibitors in cynomolgus monkey primary hepatocyte suspension (LC-MS/MS), PK prediction
Format: in vitro ADME
test_context: macaque, fu = 1
A bare number is all that is needed in reply.

Past entries and their recorded results:
• COc1ccc(-c2cccc(S(=O)(=O)N[C@@H](Cc3cccc(C(=N)N)c3)C(=O)N3CCC(N)CC3)c2)c(OC)c1 = 8.27
• COc1ccc(-c2cccc(S(=O)(=O)N[C@@H](Cc3cccc(C(=N)N)c3)C(=O)N3CCN(C(=O)NC4CCCCC4)CC3)c2)c(OC)c1 = 10.03
• COc1ccc(-c2cccc(S(=O)(=O)N[C@@H](Cc3cccc(C(=N)N)c3)C(=O)N3CCC(NC(=O)NC(C)(C)C)CC3)c2)c(OC)c1 = 7.98

What the record says about COc1ccc(-c2cccc(S(=O)(=O)N[C@@H](Cc3cccc(C(=N)N)c3)C(=O)N3CCC(NC(=O)NC4CCCCC4)CC3)c2)c(OC)c1 : Predicted Cl CLH is 5.27

====

System: dog primary hepatocytes
protocol_text: Depletion of inhibitors in dog primary hepatocyte suspension (LC-MS/MS), PK prediction
Assay type: in vitro ADME
test_context: dog, fu = 1
Let's look at some molecules and their measured Predicted Cl CLH.

Solved cases (3 shown):
* COc1ccc(-c2cccc(S(=O)(=O)N[C@@H](Cc3cccc(C(=N)N)c3)C(=O)N3CCC(NC(=O)NC(C)(C)C)CC3)c2)c(OC)c1 | 9.93
* COc1ccc(-c2cccc(S(=O)(=O)N[C@@H](Cc3cccc(C(=N)N)c3)C(=O)N3CCC(N)CC3)c2)c(OC)c1 | 10.61
* COc1ccc(-c2cccc(S(=O)(=O)N[C@@H](Cc3cccc(C(=N)N)c3)C(=O)N3CCC(NC(=O)NC4CCCCC4)CC3)c2)c(OC)c1 | 9.25

From here, focus on the item given below.
// Predicted Cl CLH lookup, molecule = COc1ccc(-c2cccc(S(=O)(=O)N[C@@H](Cc3cccc(C(=N)N)c3)C(=O)N3CCN(C(=O)NC4CCCCC4)CC3)c2)c(OC)c1 , result: 6.56
